The values you see were collected from ChEMBL document CHEMBL2331327.

# Test system: RAW264.7
# experiment description: Cytotoxicity against mouse RAW264.7 cells assessed as inhibition of cell viability after 18 hrs by MTS assay; also: test concentration or dose not given here
# Format: cell-based
# condition description: raw264.7, 18 h
endpoint: Activity

compound	result
C=C(C=O)[C@H]1C[C@@H](OC(C)=O)[C@H]2[C@@](O)(C1)[C@H](OC(C)=O)C(=O)[C@H]1C(C)(C)[C@H](O)C[C@@H](OC(C)=O)[C@@]12C [ISOABIETENIN C]	Non-toxic
C=C1C(=O)[C@@]23CC[C@@H]4C(C)(C)[C@H](O)CC[C@@]4(C)[C@@H]2[C@@H](O)C[C@@H]1C3 [TENUIFOLIN A]	Non-toxic
COC[C@H]1C(=O)[C@]23C[C@H]1C[C@H](OC(C)=O)[C@H]2[C@]1(C)[C@@H](OC(C)=O)C[C@H](O)C(C)(C)[C@H]1C(=O)[C@@H]3O [TENUIFOLIN M]	Non-toxic
C=C1[C@@H]2C[C@H](OC(C)=O)[C@H]3[C@]4(C)[C@@H](OC(C)=O)C[C@H](O)C(C)(C)[C@H]4C[C@H](O)[C@]3(C2)[C@@H]1O [TENUIFOLIN D]	Non-toxic

Ask | Kindly indicate its recorded Activity. Item: C=C1[C@@H]2C[C@H](O)[C@@H]3[C@@](CC(=O)[C@@H]4C(C)(C)[C@@H](O)C[C@H](OC(C)=O)[C@]43C)(C2)[C@@H]1O [TENUIFOLIN F]
Reply | Non-toxic

* * *

# Tested on: MCF7
# experiment description: Cytotoxicity against human MCF7 cells assessed as inhibition of cell viability after 48 hrs by MTT assay
# Format: functional, cell-based
# condition description: MCF7, 48 h
endpoint: IC50

compound	IC50
CC(C)c1cc2c3c(c1)[C@H](O)C[C@H]1[C@](C)(CO)CC[C@H](O2)[C@]31C [ISOABIETENIN A]	> 10 µM
C=C1C(=O)[C@@]23CC[C@@H]4C(C)(C)[C@H](O)CC[C@@]4(C)[C@@H]2[C@@H](O)C[C@@H]1C3 [TENUIFOLIN A]	> 10 µM
C=C1C(=O)[C@@]23CC(=O)[C@@H]4C(C)(C)[C@@H](OC(C)=O)C[C@H](O)[C@@]4(C)[C@@H]2[C@@H](O)C[C@@H]1C3 [INFLEXARABDONIN E]	4.8 µM

Ask | Kindly indicate its recorded IC50. Item: C=C1[C@@H]2C[C@H](O)[C@H]3[C@]4(C)CC[C@H](O)C(C)(C)[C@H]4C(=O)C[C@]3(C2)[C@@H]1O [TENUIFOLIN E]
Reply | > 10 µM

Ask | Kindly indicate its recorded IC50. Item: C=C(C=O)[C@H]1C[C@@H](OC(C)=O)[C@H]2[C@@](O)(C1)[C@H](OC(C)=O)C(=O)[C@H]1C(C)(C)[C@H](O)C[C@@H](OC(C)=O)[C@@]12C [ISOABIETENIN C]
Reply | > 10 µM

Ask | Kindly indicate its recorded IC50. Item: C=C1[C@@H]2C[C@H](O)[C@H]3[C@]4(C)CC[C@H](O)C(C)(C)[C@H]4CC[C@]3(C2)[C@@H]1O [TENUIFOLIN B]
Reply | > 10 µM

* * *

The entries below come with measured pIC50 values attached.
# Test system: MCF7
# experiment description: Cytotoxicity against human MCF7 cells assessed as inhibition of cell viability after 48 hrs by MTT assay
# Assay type: functional, cell-based
# condition description: MCF7, 48 h
pIC50: −log10 of the molar value.

These recorded examples may help you get a feel for the data.
substance smiles	pIC50
C=C1[C@@H]2CC(=O)[C@@H]3[C@@](CC(=O)[C@@H]4C(C)(C)[C@@H](O)C[C@H](OC(C)=O)[C@]43C)(C2)[C@@H]1O	< 5.00
C=C1C(=O)[C@]23C[C@H]1C[C@H](OC(C)=O)[C@H]2[C@]1(C)[C@@H](OC(C)=O)C[C@H](O)C(C)(C)[C@H]1C[C@@H]3OC(C)=O	5.32
COC[C@H]1C(=O)[C@]23C[C@H]1C[C@H](OC(C)=O)[C@H]2[C@]1(C)[C@@H](OC(C)=O)C[C@H](O)C(C)(C)[C@H]1C(=O)[C@@H]3O	< 5.00
C=C1C(=O)[C@@]23CC(=O)[C@@H]4C(C)(C)[C@@H](O)C[C@H](O)[C@@]4(C)[C@@H]2[C@@H](OC(C)=O)C[C@@H]1C3	5.52
C=C1[C@@H]2C[C@H](O)[C@@H]3[C@@](CC(=O)[C@@H]4C(C)(C)[C@@H](O)C[C@H](OC(C)=O)[C@]43C)(C2)[C@@H]1O	< 5.00

Alright, here's another compound for you.
Ask | Kindly indicate its recorded pIC50. Item: COC[C@@H]1C(=O)[C@]23C[C@H]1C[C@H](OC(C)=O)[C@H]2[C@@]1(C)[C@H](C(=O)[C@@H]3O)C(C)(C)[C@@H](O)C[C@@H]1O
Reply | < 5.00

* * *

# System: MCF7
# experiment description: Cytotoxicity against human MCF7 cells assessed as inhibition of cell viability after 48 hrs by MTT assay
# Format: functional, cell-based
# condition description: MCF7, 48 h
pIC50: −log10 of the molar value.
endpoint: pIC50

These recorded examples may help you get a feel for the data.
substance smiles	pIC50
C=C1[C@@H]2C[C@H](OC(C)=O)[C@H]3[C@]4(C)[C@@H](OC(C)=O)C[C@H](O)C(C)(C)[C@H]4C[C@H](O)[C@]3(C2)[C@@H]1O	< 5.00
CC(C)[C@@]1(O)CC(=O)C2=C(C1)[C@H](O)C[C@H]1[C@](C)(CO)CCC[C@]21C	< 5.00
C=C1C(=O)[C@@]23CC(=O)[C@@H]4C(C)(C)[C@@H](OC(C)=O)CC[C@@]4(C)[C@@H]2[C@@H](O)[C@H](O)[C@@H]1C3	< 5.00

Ask | Kindly indicate its recorded pIC50. Item: CC(=O)O[C@H]1C(=O)[C@@]2(C)[C@H]([C@H](OC(=O)c3ccccc3)[C@]3(O)C[C@H](OC(=O)[C@H](O)[C@@H](NC(=O)c4ccccc4)c4ccccc4)C(C)=C1C3(C)C)[C@]1(OC(C)=O)CO[C@@H]1C[C@@H]2O
Reply | > 8.10
